- System: MCF7
- assay-comment: Cytotoxicity against human MCF7 cells after 72 hrs by MTT assay
- Format: functional
- run-parameters: MCF7, 72 h, read-out: LC50 (the source's name)
What CC50 was measured for each of the following?
One number for each entry, in µM.

query-smiles	target-desc	unit-symbol	observed-result
CCCOC(=O)Nc1ccc([Se][Se]c2ccc(NC(=O)OCCC)cc2)cc1	MCF7	µM	80
CCCOC(=O)Nc1ccc([Se]C#N)cc1	MCF7	µM	67.5
Cc1ccc(OC(=O)Nc2ccc([Se][Se]c3ccc(NC(=O)Oc4ccc(C)cc4)cc3)cc2)cc1	MCF7	µM	74
O=C(Nc1ccc([Se][Se]c2ccc(NC(=O)OCC3c4ccccc4-c4ccccc43)cc2)cc1)OCC1c2ccccc2-c2ccccc21	MCF7	µM	83.3
N#C[Se]c1ccc(NC(=O)OCc2ccccc2)cc1	MCF7	µM	68.9

Report CC50 for each item below.
1. CCOC(=O)Nc1ccc([Se]C#N)cc1
2. O=C(Nc1ccc([Se][Se]c2ccc(NC(=O)Oc3ccc(Cl)cc3)cc2)cc1)Oc1ccc(Cl)cc1
3. N#C[Se]c1ccc(NC(=O)Oc2ccccc2)cc1
4. CC(C)COC(=O)Nc1ccc([Se]C#N)cc1

a:
67.8
79.6
67.8
73

====

- assay-comment: Cytotoxicity against human BEAS2B cells after 72 hrs by MTT assay
- Type: cell-based, BEAS-2B
- run-parameters: BEAS2B cells
What GI50 at 72 h was measured for each of the following?
Answers are plain numbers, in µM.

Worked cases, GI50 at 72 h given:
> print(dat)
                                query.smiles  observed.result
 1  N#C[Se]c1ccc(NC(=O)OCC2c3ccccc3-c3ccccc32)cc1              7.9
 2            CCCCCCOC(=O)Nc1ccc([Se]C#N)cc1              2.8
 3              C=CCOC(=O)Nc1ccc([Se]C#N)cc1             21.4
 4  N#C[Se]c1ccc(NC(=O)OCC2=Cc3ccccc3S2(=O)=O)cc1              7.7
 5  CC(C)COC(=O)Nc1ccc([Se][Se]c2ccc(NC(=O)OCC(C)C)cc2)cc1             13.1
 6      COc1ccc(OC(=O)Nc2ccc([Se]C#N)cc2)cc1             25.2
 7      N#C[Se]c1ccc(NC(=O)Oc2ccc(Cl)cc2)cc1              9.3
 8  CCCCCCOC(=O)Nc1ccc([Se][Se]c2ccc(NC(=O)OCCCCCC)cc2)cc1             0.01
 9            CC(C)COC(=O)Nc1ccc([Se]C#N)cc1             26.9
10  O=C(Nc1ccc([Se][Se]c2ccc(NC(=O)OCc3ccccc3)cc2)cc1)OCc1ccccc1             0.01

Report GI50 at 72 h for each item below.
1. O=C(Nc1ccc([Se][Se]c2ccc(NC(=O)OCC3=Cc4ccccc4S3(=O)=O)cc2)cc1)OCC1=Cc2ccccc2S1(=O)=O
2. CCCOC(=O)Nc1ccc([Se][Se]c2ccc(NC(=O)OCCC)cc2)cc1

a:
1: 3.5; 2: 14.4

Report GI50 at 72 h for each item below.
1. O=C(Nc1ccc([Se][Se]c2ccc(NC(=O)Oc3ccc(Cl)cc3)cc2)cc1)Oc1ccc(Cl)cc1
2. O=C(Nc1ccc([Se][Se]c2ccc(NC(=O)OCc3ccc([N+](=O)[O-])cc3)cc2)cc1)OCc1ccc([N+](=O)[O-])cc1
3. N#C[Se]c1ccc(NC(=O)OCc2ccccc2)cc1
4. N#C[Se]c1ccc(NC(=O)Oc2ccc(F)cc2)cc1
5. Cc1ccc(OC(=O)Nc2ccc([Se][Se]c3ccc(NC(=O)Oc4ccc(C)cc4)cc3)cc2)cc1
6. CCOC(=O)Nc1ccc([Se]C#N)cc1
7. O=C(Nc1ccc([Se][Se]c2ccc(NC(=O)Oc3ccc(F)cc3)cc2)cc1)Oc1ccc(F)cc1
8. N#C[Se]c1ccc(NC(=O)Oc2ccccc2)cc1

a:
0.1
6.3
0.1
19.8
0.7
21.7
0.7
8.9

Report GI50 at 72 h for each item below.
1. CCOC(=O)Nc1ccc([Se][Se]c2ccc(NC(=O)OCC)cc2)cc1
2. N#C[Se]c1ccc(NC(=O)OCc2ccc([N+](=O)[O-])cc2)cc1

a:
1: 16.1; 2: 7.7

====

What LC50 was measured for each of the following?
- assay-comment: Cytotoxicity against human BEAS2B cells after 72 hrs by MTT assay
- Type: cell-based, BEAS-2B
- run-parameters: beas-2b, 72 h
Give bare numbers, in µM.

> print(dat)
                               query.smiles  observed.result
1  N#C[Se]c1ccc(NC(=O)OCC2c3ccccc3-c3ccccc32)cc1             68.2
2      COc1ccc(OC(=O)Nc2ccc([Se]C#N)cc2)cc1             71.6
3  COc1ccc(OC(=O)Nc2ccc([Se][Se]c3ccc(NC(=O)Oc4ccc(OC)cc4)cc3)cc2)cc1             62.3

q: // fetch LC50 given entry `CCCCCCOC(=O)Nc1ccc([Se]C#N)cc1`
a: 68

====

- assay-comment: Cytotoxicity against human BEAS2B cells after 72 hrs by MTT assay
- Format: cell-based, BEAS-2B
- run-parameters: beas-2b, 72 h
What TGI was measured for each of the following?
Numbers only, in µM.

Worked cases, TGI given:
> print(dat)
                                query.smiles  assay.readout  observed.result
 1          N#C[Se]c1ccc(NC(=O)Oc2ccccc2)cc1            TGI             38.2
 2  COc1ccc(OC(=O)Nc2ccc([Se][Se]c3ccc(NC(=O)Oc4ccc(OC)cc4)cc3)cc2)cc1            TGI             19.9
 3      N#C[Se]c1ccc(NC(=O)Oc2ccc(Cl)cc2)cc1            TGI               38
 4  N#C[Se]c1ccc(NC(=O)OCC2c3ccccc3-c3ccccc32)cc1            TGI             38.4
 5  O=C(Nc1ccc([Se][Se]c2ccc(NC(=O)OCc3ccc([N+](=O)[O-])cc3)cc2)cc1)OCc1ccc([N+](=O)[O-])cc1            TGI             22.5
 6  O=C(Nc1ccc([Se][Se]c2ccc(NC(=O)Oc3ccccc3)cc2)cc1)Oc1ccccc1            TGI              8.6
 7              CCCCOC(=O)Nc1ccc([Se]C#N)cc1            TGI             12.2
 8  CCCCOC(=O)Nc1ccc([Se][Se]c2ccc(NC(=O)OCCCC)cc2)cc1            TGI             49.6
 9  O=C(Nc1ccc([Se][Se]c2ccc(NC(=O)OCc3ccccc3)cc2)cc1)OCc1ccccc1            TGI             17.3
10  C=CCOC(=O)Nc1ccc([Se][Se]c2ccc(NC(=O)OCC=C)cc2)cc1            TGI             42.9

Report TGI for each item below.
1. Cc1ccc(OC(=O)Nc2ccc([Se][Se]c3ccc(NC(=O)Oc4ccc(C)cc4)cc3)cc2)cc1
2. CC(C)COC(=O)Nc1ccc([Se]C#N)cc1
3. CCCOC(=O)Nc1ccc([Se]C#N)cc1
4. O=C(Nc1ccc([Se][Se]c2ccc(NC(=O)Oc3ccc(F)cc3)cc2)cc1)Oc1ccc(F)cc1
5. COc1ccc(OC(=O)Nc2ccc([Se]C#N)cc2)cc1
6. N#C[Se]c1ccc(NC(=O)OCC2=Cc3ccccc3S2(=O)=O)cc1
7. O=C(Nc1ccc([Se][Se]c2ccc(NC(=O)Oc3ccc(Cl)cc3)cc2)cc1)Oc1ccc(Cl)cc1
8. Cc1ccc(OC(=O)Nc2ccc([Se]C#N)cc2)cc1

a:
[19.2, 49.5, 46.3, 23.5, 48.4, 29, 26.6, 15.3]

Report TGI for each item below.
1. CCCCCCOC(=O)Nc1ccc([Se][Se]c2ccc(NC(=O)OCCCCCC)cc2)cc1
2. N#C[Se]c1ccc(NC(=O)OCc2ccccc2)cc1
3. CCOC(=O)Nc1ccc([Se]C#N)cc1

a:
6.9
34.4
46.9

====

- assay-comment: Cytotoxicity against human PC3 cells after 72 hrs by MTT assay
- Format: functional
- run-parameters: PC-3, 72 h
// class assignment uses GI50 with these ranges: lower segment (below 6 µM), middle segment (6 µM to below 10 µM), upper segment (10 µM or more)

Look over these answered cases.
molecule	group-label
CCCCOC(=O)Nc1ccc([Se][Se]c2ccc(NC(=O)OCCCC)cc2)cc1	upper segment
C=CCOC(=O)Nc1ccc([Se]C#N)cc1	upper segment
C=CCOC(=O)Nc1ccc([Se][Se]c2ccc(NC(=O)OCC=C)cc2)cc1	upper segment
O=C(Nc1ccc([Se][Se]c2ccc(NC(=O)Oc3ccc(Cl)cc3)cc2)cc1)Oc1ccc(Cl)cc1	lower segment
CCCCOC(=O)Nc1ccc([Se]C#N)cc1	upper segment

q: Category of `COc1ccc(OC(=O)Nc2ccc([Se][Se]c3ccc(NC(=O)Oc4ccc(OC)cc4)cc3)cc2)cc1` , please.
a: lower segment

q: Category of `Cc1ccc(OC(=O)Nc2ccc([Se]C#N)cc2)cc1` , please.
a: middle segment

q: Category of `CCOC(=O)Nc1ccc([Se][Se]c2ccc(NC(=O)OCC)cc2)cc1` , please.
a: upper segment

q: Category of `Cc1ccc(OC(=O)Nc2ccc([Se][Se]c3ccc(NC(=O)Oc4ccc(C)cc4)cc3)cc2)cc1` , please.
a: lower segment

q: Category of `CCCOC(=O)Nc1ccc([Se][Se]c2ccc(NC(=O)OCCC)cc2)cc1` , please.
a: upper segment

q: Category of `COc1ccc(OC(=O)Nc2ccc([Se]C#N)cc2)cc1` , please.
a: middle segment

q: Category of COc1cc([C@@H]2c3cc4c(cc3[C@@H](O[C@@H]3O[C@@H]5CO[C@@H](C)O[C@H]5[C@H](O)[C@H]3O)[C@H]3COC(=O)[C@H]23)OCO4)cc(OC)c1O [ETOPOSIDE] , please.
a: lower segment
